target: HLA-B*46:01; test: IEDB peptide-MHC binding, purified MHC/direct/fluorescence; filed as Kd, often an IC50 or EC50 that approximates it; bounds were set here for any values at or beyond the usual limits of such assays; conditions: source organism: Yersinia pestis
reportedEndpoint: Kd (µM)
Output spec: scalar in µM, unitless text.

Query: Data request, read-out Kd, for STFAASGPF
Response: 6.19

====

target: HLA-B*18:01; experiment: IEDB peptide-MHC binding, purified MHC/direct/fluorescence; filed as Kd, often an IC50 or EC50 that approximates it; bounds were set here for any values at or beyond the usual limits of such assays; conditions: source organism: Yersinia pestis CA88-4125
reportedEndpoint: Kd

Query: Data request, read-out Kd, for QQRPDLILV
Response: ≥ 20 µM

====

molecular target: HLA-B*40:01; test: IEDB peptide-MHC binding, purified MHC/direct/fluorescence; filed as Kd, often an IC50 or EC50 that approximates it; bounds were set here for any values at or beyond the usual limits of such assays; settings: source organism: Vibrio parahaemolyticus
pKd: −log10 of the molar value.
reportedEndpoint: pKd

Query: Data request, read-out pKd, for YREAGIPVL
Response: ≤ 4.70

====

target: HLA-B*51:01; assay: IEDB peptide-MHC binding, purified MHC/competitive/fluorescence; bounds were set here for any values at or beyond the usual limits of such assays; details: source organism: Homo sapiens
pIC50: −log10 of the molar value.
reportedEndpoint: pIC50

Query: Data request, read-out pIC50, for YFYYNAFHWAI
Response: ≤ 4.70

====

target: HLA-C*03:03; test: IEDB peptide-MHC binding, purified MHC/direct/fluorescence; filed as Kd, often an IC50 or EC50 that approximates it; bounds were set here for any values at or beyond the usual limits of such assays; details: source organism: Human herpesvirus 4 strain B95-8
reportedEndpoint: Kd

Query: Data request, read-out Kd, for LAYARGQAM
Response: ≤ 1 nM

====

target: HLA-A*69:01; test: IEDB peptide-MHC binding, purified MHC/direct/fluorescence; filed as Kd, often an IC50 or EC50 that approximates it; bounds were set here for any values at or beyond the usual limits of such assays; settings: source organism: Orthohantavirus andesense
pKd: −log10 of the molar value.
reportedEndpoint: pKd

Query: Data request, read-out pKd, for SIKFKRKLM
Response: ≤ 4.70

====

target: HLA-A*29:02; assay: IEDB peptide-MHC binding, purified MHC/competitive/radioactivity; filed as Kd, often an IC50 or EC50 that approximates it; bounds were set here for any values at or beyond the usual limits of such assays; conditions: source organism: Mammarenavirus tacaribeense
pKd: −log10 of the molar value.
reportedEndpoint: pKd

Query: Data request, read-out pKd, for HYDQKLGSY
Response: ≤ 4.69

====

molecular target: HLA-A*02:16; experiment: IEDB peptide-MHC binding, purified MHC/direct/fluorescence; filed as Kd, often an IC50 or EC50 that approximates it; bounds were set here for any values at or beyond the usual limits of such assays; details: source organism: Mycobacterium tuberculosis str. Haarlem
reportedEndpoint: Kd

Query: Item MAVTAAPYI with HLA-A*02:16 - Kd?
Response: ≥ 20 µM

====

target: HLA-A*03:01; assay: IEDB peptide-MHC binding, purified MHC/competitive/radioactivity; filed as Kd, often an IC50 or EC50 that approximates it; bounds were set here for any values at or beyond the usual limits of such assays; details: source organism: Mammarenavirus lassaense
reportedEndpoint: Kd (nM)
Output spec: scalar in nM, unitless text.

Query: Data request, read-out Kd, for TLGSFTWFPH
Response: 428
